# Test system: biomarker (antibody) in serum samples from patients with symptoms of tuberculosis
# Assay type: binding, human
# Condition Summary: serum sample 56 TB−
Marks after values point to notes of the source that are not given here.
Recorded Metric: ELISA absorbance at 492 nm

These solved cases illustrate the format of a correct answer.
CCCCCCCCCCCCCCCCCCCCCC[C@@H](C(=O)OC[C@H]1O[C@H](OC)[C@@H](O)[C@@H]1O)[C@H](O)CCCCCCCCCCCCCCC[C@@H]1C[C@@H]1CCCCCCCCCCCCCCCCCCC(=O)C(C)CCCCCCCCCCCCCCCCCC (stereo partly drawn) [Antigen C] ... 0.90*
CCCCCCCCCCCCCCCCCCCCCC[C@@H](C(=O)OC[C@H]1O[C@H](OC)[C@@H](O)[C@@H]1O)[C@H](O)CCCCCCCCCCCCCCCCC[C@@H]1C[C@@H]1CCCCCCCCCCCCCCCC[C@@H](OC)[C@@H](C)CCCCCCCCCCCCCCCCCC [Antigen A] ... 0.68*

Attention now shifts to the item below.
Notebook entry, biomarker (antibody) in serum samples from patients with symptoms of tuberculosis assay: ELISA absorbance at 492 nm of CCCCCCCCCCCCCCCCCCCCCCCC[C@@H](C(=O)OC[C@H]1O[C@H](OC)[C@@H](O)[C@@H]1O)[C@H](O)CCCCCCCCCCC[C@H]1CC1CCCCCCCCCCCCCC[C@H]1C[C@H]1CCCCCCCCCCCCCCCCCCCC (stereo partly drawn) [Antigen F] = ?
0.73*
